tested on: K. pneumoniae UFR68 (TEM-1, SHV-11, CTX-M-15, KPC-3); experiment: MIC broth microdilution, alone and synergy with ceftazidime; details: strain UFR68; compound fixed at 4 μg/mL
// MIC of CAZ in combination with compound at 4 μg/mL lookup, one value per entry

compound="O=C1N2Cc3c(sc(=O)n3CCO)C(C2)N1OS(=O)(=O)[O-].[Na+] (stereo not shown)" result="≤0.25 µg/mL"
compound="NCCn1c2c(sc1=O)C1CN(C2)C(=O)N1OS(=O)(=O)[O-].[Na+] (stereo not shown)" result="<0.25 µg/mL"
compound="Cn1c2c(sc1=O)C1CN(C2)C(=O)N1OS(=O)(=O)[O-].[Na+] (stereo not shown)" result="64 µg/mL"

Next compound, MIC of CAZ in combination with compound at 4 μg/mL to be filled in.
Looking for the measured MIC of CAZ in combination with compound at 4 μg/mL of COC(=O)Cn1c2c(sc1=O)C1CN(C2)C(=O)N1OS(=O)(=O)[O-].[Na+] (stereo not shown) , can you help?
32 µg/mL

* * *

molecular target: OXA-11 (Pseudomonas aeruginosa, UniProt Q06778); assay: β-lactamase inhibitory activity, nitrocefin hydrolysis
Sequence (Q06778 21-266): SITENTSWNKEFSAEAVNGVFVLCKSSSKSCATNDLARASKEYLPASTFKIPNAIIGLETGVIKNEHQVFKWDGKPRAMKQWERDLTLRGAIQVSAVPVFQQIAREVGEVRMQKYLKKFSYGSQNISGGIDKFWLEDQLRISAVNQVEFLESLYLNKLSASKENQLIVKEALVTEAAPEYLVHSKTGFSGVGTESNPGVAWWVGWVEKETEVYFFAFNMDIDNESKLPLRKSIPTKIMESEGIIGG
pIC50: −log10 of the molar value.
rule met means recorded pIC50 is 8 or above; rule not met means it is below 8.

compound="O=C1N2Cc3c(sc(=O)n3CCO)C(C2)N1OS(=O)(=O)[O-].[Na+] (stereo not drawn)" tested_target="OXA-11 (Pseudomonas aeruginosa, UniProt Q06778)" category_label="rule not met"
compound="NCCn1c2c(sc1=O)C1CN(C2)C(=O)N1OS(=O)(=O)[O-].[Na+] (stereo not drawn)" tested_target="OXA-11 (Pseudomonas aeruginosa, UniProt Q06778)" category_label="rule not met"
compound="COC(=O)Cn1c2c(sc1=O)C1CN(C2)C(=O)N1OS(=O)(=O)[O-].[Na+] (stereo not drawn)" tested_target="OXA-11 (Pseudomonas aeruginosa, UniProt Q06778)" category_label="rule met"

Is pIC50 at least 8? Consider Cn1c2c(sc1=O)C1CN(C2)C(=O)N1OS(=O)(=O)[O-].[Na+] (stereo not drawn)
rule not met

Is pIC50 at least 8? Consider N=C(N)NCCn1c2c(sc1=O)C1CN(C2)C(=O)N1OS(=O)(=O)[O-].[Na+] (stereo not drawn)
rule not met

* * *

system: E. cloacae 260508 (TEM-1, CTX-M-15); test: MIC broth microdilution, alone and synergy with ceftazidime; settings: Enterobacter cloacae, read-out: MIC compounds of the invention alone
endpoint.label: MIC (µg/mL)
Give the value in µg/mL but do not write µg/mL after it.

# annotated cases, reported MIC shown
compound="O=C1N2Cc3c(sc(=O)n3CCO)C(C2)N1OS(=O)(=O)[O-].[Na+] (stereo not shown)" endpoint_label=MIC result=4
compound="COC(=O)Cn1c2c(sc1=O)C1CN(C2)C(=O)N1OS(=O)(=O)[O-].[Na+] (stereo not shown)" endpoint_label=MIC result=4
compound="NCCn1c2c(sc1=O)C1CN(C2)C(=O)N1OS(=O)(=O)[O-].[Na+] (stereo not shown)" endpoint_label=MIC result=8

State its MIC on E. cloacae 260508 (TEM-1, CTX-M-15): Cn1c2c(sc1=O)C1CN(C2)C(=O)N1OS(=O)(=O)[O-].[Na+] (stereo not shown)
4

* * *

// MIC of CAZ in combination with compound at 4 μg/mL lookup, one value per entry
test system: E. cloacae P99 (AmpC); experiment: MIC broth microdilution, alone and synergy with ceftazidime; conditions: strain P99; compound fixed at 4 μg/mL
Give the value in µg/mL but do not write µg/mL after it.

# annotated cases, reported MIC of CAZ in combination with compound at 4 μg/mL shown
compound="O=C1N2Cc3c(sc(=O)n3CCO)C(C2)N1OS(=O)(=O)[O-].[Na+] (stereo not drawn)" result=0.25
compound="CC(C)(C)OC(=O)NCCn1c2c(sc1=O)C1CN(C2)C(=O)N1OS(=O)(=O)[O-].[Na+] (stereo not drawn)" result=128
compound="Cn1c2c(sc1=O)C1CN(C2)C(=O)N1OS(=O)(=O)[O-].[Na+] (stereo not drawn)" result=0.5

Next compound, MIC of CAZ in combination with compound at 4 μg/mL to be filled in.
State its MIC of CAZ in combination with compound at 4 μg/mL on E. cloacae P99 (AmpC): COC(=O)Cn1c2c(sc1=O)C1CN(C2)C(=O)N1OS(=O)(=O)[O-].[Na+] (stereo not drawn)
4

* * *

// MIC of CAZ in combination with compound at 4 μg/mL lookup, one value per entry
test system: K. pneumoniae UFR77 (CMY-2); experiment: MIC broth microdilution, alone and synergy with ceftazidime; conditions: strain UFR77; compound fixed at 4 μg/mL

# annotated cases, reported MIC of CAZ in combination with compound at 4 μg/mL shown
compound="NCCn1c2c(sc1=O)C1CN(C2)C(=O)N1OS(=O)(=O)[O-].[Na+] (stereo not shown) [Example 4]" result="≤0.25 µg/mL"
compound="Cn1c2c(sc1=O)C1CN(C2)C(=O)N1OS(=O)(=O)[O-].[Na+] (stereo not shown) [Example 1]" result="≤0.25 µg/mL"
compound="COC(=O)Cn1c2c(sc1=O)C1CN(C2)C(=O)N1OS(=O)(=O)[O-].[Na+] (stereo not shown) [Example 2]" result="0.25 µg/mL"

Next compound, MIC of CAZ in combination with compound at 4 μg/mL to be filled in.
Looking for the measured MIC of CAZ in combination with compound at 4 μg/mL of O=C1N2Cc3c(sc(=O)n3CCO)C(C2)N1OS(=O)(=O)[O-].[Na+] (stereo not shown) [Example 5] , can you help?
<0.25 µg/mL

* * *

target: AmpC P. aeruginosa (Pseudomonas aeruginosa); assay: biochemical
Sequence (P24735 27-397): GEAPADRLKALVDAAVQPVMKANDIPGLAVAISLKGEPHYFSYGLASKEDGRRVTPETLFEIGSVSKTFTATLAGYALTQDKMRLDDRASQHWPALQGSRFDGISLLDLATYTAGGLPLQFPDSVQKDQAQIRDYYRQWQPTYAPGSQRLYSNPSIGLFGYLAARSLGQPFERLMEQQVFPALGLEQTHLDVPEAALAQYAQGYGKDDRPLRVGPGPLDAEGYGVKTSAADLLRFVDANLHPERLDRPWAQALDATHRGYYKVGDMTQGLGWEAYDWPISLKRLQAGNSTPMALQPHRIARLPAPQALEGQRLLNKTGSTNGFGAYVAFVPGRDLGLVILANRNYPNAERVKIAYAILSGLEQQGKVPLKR
One threshold, 0.4 µM, splits the recorded IC50 values: lower ones are 1.0, equal or higher ones are 0.0.

Input Cn1c2c(sc1=O)C1CN(C2)C(=O)N1OS(=O)(=O)[O-].[Na+] (stereo not drawn) ; condition: IC50 strictly below 0.4 µM. Does it hold?
1.0

Input COC(=O)Cn1c2c(sc1=O)C1CN(C2)C(=O)N1OS(=O)(=O)[O-].[Na+] (stereo not drawn) ; condition: IC50 strictly below 0.4 µM. Does it hold?
1.0

Input N=C(N)NCCn1c2c(sc1=O)C1CN(C2)C(=O)N1OS(=O)(=O)[O-].[Na+] (stereo not drawn) ; condition: IC50 strictly below 0.4 µM. Does it hold?
0.0

Input CC(C)(C)OC(=O)NCCn1c2c(sc1=O)C1CN(C2)C(=O)N1OS(=O)(=O)[O-].[Na+] (stereo not drawn) ; condition: IC50 strictly below 0.4 µM. Does it hold?
1.0

Input O=C1N2Cc3c(sc(=O)n3CCO)C(C2)N1OS(=O)(=O)[O-].[Na+] (stereo not drawn) ; condition: IC50 strictly below 0.4 µM. Does it hold?
1.0

Input NCCn1c2c(sc1=O)C1CN(C2)C(=O)N1OS(=O)(=O)[O-].[Na+] (stereo not drawn) ; condition: IC50 strictly below 0.4 µM. Does it hold?
0.0

* * *

target: OXA-48 (Klebsiella pneumoniae, UniProt Q6XEC0); test: β-lactamase inhibitory activity, nitrocefin hydrolysis
Sequence (Q6XEC0 23-265 limits assumed): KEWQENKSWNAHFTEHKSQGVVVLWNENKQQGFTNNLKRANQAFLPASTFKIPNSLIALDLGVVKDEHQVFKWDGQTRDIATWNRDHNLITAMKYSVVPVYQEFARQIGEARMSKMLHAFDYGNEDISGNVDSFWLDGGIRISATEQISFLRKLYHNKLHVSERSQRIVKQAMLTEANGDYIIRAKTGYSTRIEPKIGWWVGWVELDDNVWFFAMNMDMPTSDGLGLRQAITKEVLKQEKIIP
endpoint.label: pIC50
Field pIC50 (float): negative decimal logarithm of the concentration in molar.

compound="O=C1N2Cc3c(sc(=O)n3CCO)C(C2)N1OS(=O)(=O)[O-].[Na+] (stereo not drawn)" endpoint_label=pIC50 result=9.10
compound="NCCn1c2c(sc1=O)C1CN(C2)C(=O)N1OS(=O)(=O)[O-].[Na+] (stereo not drawn)" endpoint_label=pIC50 result=8.39
compound="COC(=O)Cn1c2c(sc1=O)C1CN(C2)C(=O)N1OS(=O)(=O)[O-].[Na+] (stereo not drawn)" endpoint_label=pIC50 result=9.17
compound="CC(C)(C)OC(=O)NCCn1c2c(sc1=O)C1CN(C2)C(=O)N1OS(=O)(=O)[O-].[Na+] (stereo not drawn)" endpoint_label=pIC50 result=8.77
compound="Cn1c2c(sc1=O)C1CN(C2)C(=O)N1OS(=O)(=O)[O-].[Na+] (stereo not drawn)" endpoint_label=pIC50 result=9.05

Next compound, pIC50 to be filled in.
Looking for the measured pIC50 of N=C(N)NCCn1c2c(sc1=O)C1CN(C2)C(=O)N1OS(=O)(=O)[O-].[Na+] (stereo not drawn) , can you help?
8.80

* * *

tested on: E. coli UFR52 (TEM-1, SHV-12, IMP-8); experiment: MIC broth microdilution, alone and synergy with ceftazidime; details: Escherichia coli, read-out: MIC compounds of the invention alone
endpoint.label: MIC (µg/mL)
Give the value in µg/mL but do not write µg/mL after it.

# annotated cases, reported MIC shown
compound="COC(=O)Cn1c2c(sc1=O)C1CN(C2)C(=O)N1OS(=O)(=O)[O-].[Na+] (stereo not shown)" tested_target="E. coli UFR52 (TEM-1, SHV-12, IMP-8)" result=8
compound="O=C1N2Cc3c(sc(=O)n3CCO)C(C2)N1OS(=O)(=O)[O-].[Na+] (stereo not shown)" tested_target="E. coli UFR52 (TEM-1, SHV-12, IMP-8)" result=0.5
compound="Cn1c2c(sc1=O)C1CN(C2)C(=O)N1OS(=O)(=O)[O-].[Na+] (stereo not shown)" tested_target="E. coli UFR52 (TEM-1, SHV-12, IMP-8)" result=8

Next compound, MIC to be filled in.
Looking for the measured MIC of NCCn1c2c(sc1=O)C1CN(C2)C(=O)N1OS(=O)(=O)[O-].[Na+] (stereo not shown) , can you help?
2
